These data points were gathered from paper PMC10424187.

# TEST_METHOD_NOTES: ChromLogD
# Type: physicochemical
# APPLIED_CONDITIONS: pH 7.4; read-out: Chrom LogDpH7.4

MOLECULE: COc1ncc(Cn2nc(C(=O)Nc3ccc(F)c(C(=O)NC4CC4)c3)ccc2=O)cc1F [Compound 18]
chromatographic logD: 5.6
--
MOLECULE: O=C(Nc1ccc(F)c(C(=O)NC2CC2)c1)c1ccc(=O)n(Cc2ccc(Cl)c(F)c2)n1 [Compound 17]
chromatographic logD: 5.1
--
MOLECULE: COc1ccc(Cn2nc(C(=O)Nc3ccc(F)c(C(=O)NC4CC4)c3)ccc2=O)cc1C#N [Compound 16]
chromatographic logD: 4
--
MOLECULE: CN(C(=O)c1ccc(=O)n(Cc2ccccc2)n1)c1cccc(C(=O)NC2CC2)c1 [Compound 6]
chromatographic logD: 3.3
--
MOLECULE: COc1cccc(Cn2nc(C(=O)Nc3ccc(F)c(C(=O)NC4CC4)c3)ccc2=O)c1 [Compound 13]
chromatographic logD: 5.5
